Entries annotated with measured ΔTm at 10 µM
Molecular target: SRPK2A (Homo sapiens)
Construct: purchased in-house (home-made panel, SGC-style construct names)
Sequence (P78362 whole entry): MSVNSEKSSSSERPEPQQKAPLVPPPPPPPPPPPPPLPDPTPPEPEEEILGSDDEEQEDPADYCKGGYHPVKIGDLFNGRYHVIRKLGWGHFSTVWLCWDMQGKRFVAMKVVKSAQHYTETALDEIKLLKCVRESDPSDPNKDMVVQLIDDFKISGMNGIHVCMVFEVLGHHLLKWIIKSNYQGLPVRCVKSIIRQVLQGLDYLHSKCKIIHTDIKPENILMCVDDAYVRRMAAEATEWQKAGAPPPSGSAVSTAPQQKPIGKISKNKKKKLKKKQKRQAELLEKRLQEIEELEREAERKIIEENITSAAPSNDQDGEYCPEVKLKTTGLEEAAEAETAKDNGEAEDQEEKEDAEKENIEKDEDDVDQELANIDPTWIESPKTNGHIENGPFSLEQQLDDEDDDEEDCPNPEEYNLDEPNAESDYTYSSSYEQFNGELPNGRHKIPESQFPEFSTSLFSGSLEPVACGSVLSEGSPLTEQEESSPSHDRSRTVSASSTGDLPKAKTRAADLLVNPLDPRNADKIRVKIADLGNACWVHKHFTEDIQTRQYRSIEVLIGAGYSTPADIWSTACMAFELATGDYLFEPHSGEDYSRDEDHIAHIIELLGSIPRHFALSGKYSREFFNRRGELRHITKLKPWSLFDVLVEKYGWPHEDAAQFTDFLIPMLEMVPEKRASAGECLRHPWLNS
Test: DSF thermal shift, kinase panel
Assay type: binding
Details: 10 μM compound
Procedure: The corresponding dianilino-TDZs (1–5) were tested on a panel of 46 protein kinases representing the major kinome branches at a concentration of 10 μM using a Differential Scanning Fluorimetry (DSF). […] Protein thermal shift data was measured in a qPCR instrument (Applied Biosystems QuantStudio 6) programmed to equilibrate the plate at 25 °C for 5 min followed by ramping the temperature to 95 °C at a rate of 0.05 °C/s. […]
Result type: ΔTm at 10 µM (°C)

compound_smiles=Cc1ccc(Nc2nsnc(Nc3ccc(C(N)=O)cc3)c2=O)cc1O result_type="ΔTm at 10 µM" measurement_unit=°C reported=0.6
compound_smiles=CNC(=O)c1ccccc1Nc1nsnc(Nc2ccc(N3CCOCC3)cc2)c1=O result_type="ΔTm at 10 µM" measurement_unit=°C reported=-0.1
compound_smiles=CNC(=O)c1ccccc1Nc1nsnc(Nc2cccc(CS(C)(=O)=O)c2)c1=O result_type="ΔTm at 10 µM" measurement_unit=°C reported=-0.3
compound_smiles=Cc1ccc(Nc2nsnc(Nc3cccc(C(N)=O)c3)c2=O)cc1O result_type="ΔTm at 10 µM" measurement_unit=°C reported=-0.2
compound_smiles=Cc1ccc(Nc2nsnc(Nc3ccc4c(c3)CS(=O)(=O)C4)c2=O)cc1O result_type="ΔTm at 10 µM" measurement_unit=°C reported=0.1

* * *

Molecular target: CSNK1G1 (Homo sapiens, UniProt Q9HCP0)
Construct: purchased in-house (home-made panel, SGC-style construct names)
Sequence (Q9HCP0 whole entry): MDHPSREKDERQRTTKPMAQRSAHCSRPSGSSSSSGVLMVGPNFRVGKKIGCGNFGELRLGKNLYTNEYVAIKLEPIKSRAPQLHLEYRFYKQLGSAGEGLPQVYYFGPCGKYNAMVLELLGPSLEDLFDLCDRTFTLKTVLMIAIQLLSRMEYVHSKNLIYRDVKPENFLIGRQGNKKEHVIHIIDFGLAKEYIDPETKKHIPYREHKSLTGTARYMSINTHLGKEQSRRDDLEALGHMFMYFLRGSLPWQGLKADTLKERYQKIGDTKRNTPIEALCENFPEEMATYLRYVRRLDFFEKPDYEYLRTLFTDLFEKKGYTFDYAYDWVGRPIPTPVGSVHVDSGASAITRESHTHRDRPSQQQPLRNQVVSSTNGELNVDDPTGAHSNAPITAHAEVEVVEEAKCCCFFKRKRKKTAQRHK
Experiment: DSF thermal shift, kinase panel
Format: binding
Settings: 10 μM compound
Result type: ΔTm at 10 µM (°C)

compound_smiles=CNC(=O)c1ccccc1Nc1nsnc(Nc2cccc(CS(C)(=O)=O)c2)c1=O result_type="ΔTm at 10 µM" reported=0.3
compound_smiles=Cc1ccc(Nc2nsnc(Nc3cccc(C(N)=O)c3)c2=O)cc1O result_type="ΔTm at 10 µM" reported=-0.6
compound_smiles=Cc1ccc(Nc2nsnc(Nc3ccc(C(N)=O)cc3)c2=O)cc1O result_type="ΔTm at 10 µM" reported=-1
compound_smiles=CNC(=O)c1ccccc1Nc1nsnc(Nc2ccc(N3CCOCC3)cc2)c1=O result_type="ΔTm at 10 µM" reported=0
compound_smiles=Cc1ccc(Nc2nsnc(Nc3ccc4c(c3)CS(=O)(=O)C4)c2=O)cc1O result_type="ΔTm at 10 µM" reported=-0.7

* * *

Entries annotated with measured Enzyme assay raw data (0 μM drug = 100.00)
Biological target: human CaMKK2 (residues 50–588) (Homo sapiens, UniProt Q96RR4)
Construct: recombinant bacterial expressed human CaMKK2 (residues 50–588); made in house
Experiment: CaMKK2 enzyme assay ([γ-32P]-ATP, CaMKKtide peptide);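 also: radiometric kinase assay: phosphate transfer from [γ-32P]-ATP to synthetic peptide substrate, 10 min reaction at 30 °C, peptide-bound radioactivity captured on P81 paper and measured by scintillation counting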
Format: biochemical
Details: [drug] 0.01 μM
Result type: Enzyme assay raw data (0 μM drug = 100.00)

compound="O=C(O)c1ccc2c3c1cccc3c(=O)n1c3ccccc3nc21 [STO-609, reference compound]" reported=69.88
compound="Cc1ccc(Nc2nsnc(Nc3ccc(-c4ncc[nH]4)cc3)c2=O)cc1O [Compound 11]" reported=93.09
compound="Cc1ccc(Nc2nsnc(Nc3ccccc3C(N)=O)c2=O)cc1O [Compound 10]" reported=98.48
compound="Cc1ccc(Nc2nsnc(Nc3ccc(C(=O)O)cc3)c2=O)cc1O [Compound 12]" reported=95.03

* * *

Biological target: CDC42BPA (Homo sapiens, UniProt Q5VT25)
Construct: purchased in-house (home-made panel, SGC-style construct names)
Sequence (Q5VT25 whole entry): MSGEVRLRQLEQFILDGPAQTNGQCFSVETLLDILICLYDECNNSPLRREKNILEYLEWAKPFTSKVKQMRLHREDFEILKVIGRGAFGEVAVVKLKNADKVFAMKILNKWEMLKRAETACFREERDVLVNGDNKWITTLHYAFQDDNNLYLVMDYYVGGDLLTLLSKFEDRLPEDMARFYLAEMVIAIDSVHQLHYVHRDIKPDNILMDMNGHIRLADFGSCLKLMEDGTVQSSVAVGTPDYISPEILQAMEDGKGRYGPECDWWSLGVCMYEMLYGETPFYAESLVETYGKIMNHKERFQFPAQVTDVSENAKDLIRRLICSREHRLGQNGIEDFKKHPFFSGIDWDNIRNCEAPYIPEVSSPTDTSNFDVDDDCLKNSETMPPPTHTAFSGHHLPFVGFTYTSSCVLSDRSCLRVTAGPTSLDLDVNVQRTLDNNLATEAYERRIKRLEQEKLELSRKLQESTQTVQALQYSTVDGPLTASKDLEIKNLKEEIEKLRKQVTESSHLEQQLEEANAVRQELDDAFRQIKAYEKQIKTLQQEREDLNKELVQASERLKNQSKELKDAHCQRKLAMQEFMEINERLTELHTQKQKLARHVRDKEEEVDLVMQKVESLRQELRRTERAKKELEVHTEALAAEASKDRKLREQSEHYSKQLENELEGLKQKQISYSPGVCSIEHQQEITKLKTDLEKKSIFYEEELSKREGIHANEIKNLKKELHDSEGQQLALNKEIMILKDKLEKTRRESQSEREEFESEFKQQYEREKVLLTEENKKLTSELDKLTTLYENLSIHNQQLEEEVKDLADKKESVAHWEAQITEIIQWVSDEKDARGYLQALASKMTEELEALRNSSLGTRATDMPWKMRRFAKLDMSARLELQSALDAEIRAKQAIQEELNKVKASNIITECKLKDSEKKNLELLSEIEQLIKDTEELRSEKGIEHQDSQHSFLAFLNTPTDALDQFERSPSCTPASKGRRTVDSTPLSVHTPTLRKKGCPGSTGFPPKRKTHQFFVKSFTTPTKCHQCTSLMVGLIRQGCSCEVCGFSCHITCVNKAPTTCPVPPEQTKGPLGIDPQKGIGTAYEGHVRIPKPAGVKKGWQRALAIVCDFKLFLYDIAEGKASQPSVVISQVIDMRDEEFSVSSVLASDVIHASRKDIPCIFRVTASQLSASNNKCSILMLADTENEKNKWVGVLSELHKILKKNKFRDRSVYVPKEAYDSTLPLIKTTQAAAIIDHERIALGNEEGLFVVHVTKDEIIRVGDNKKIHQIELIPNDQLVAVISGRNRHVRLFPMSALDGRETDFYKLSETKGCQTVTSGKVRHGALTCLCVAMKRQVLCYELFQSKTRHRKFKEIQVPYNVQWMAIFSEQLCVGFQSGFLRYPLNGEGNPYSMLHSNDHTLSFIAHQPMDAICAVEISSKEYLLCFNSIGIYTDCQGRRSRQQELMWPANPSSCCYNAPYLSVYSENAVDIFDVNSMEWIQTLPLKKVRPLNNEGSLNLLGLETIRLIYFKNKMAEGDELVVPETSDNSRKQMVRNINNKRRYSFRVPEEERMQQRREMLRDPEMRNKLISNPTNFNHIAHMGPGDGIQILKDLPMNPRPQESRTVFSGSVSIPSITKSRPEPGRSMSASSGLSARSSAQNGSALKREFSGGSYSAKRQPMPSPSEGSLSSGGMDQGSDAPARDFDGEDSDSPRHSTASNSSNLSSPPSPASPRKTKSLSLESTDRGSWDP
Assay: DSF thermal shift, kinase panel
Assay type: binding
Conditions: 10 μM compound
Label 1 (yes) when ΔTm at 10 µM is strictly below 0.3 °C; at or above that, label 0 (no).

compound_smiles=Cc1ccc(Nc2nsnc(Nc3ccc4c(c3)CS(=O)(=O)C4)c2=O)cc1O class_name="0 (no)"
compound_smiles=CNC(=O)c1ccccc1Nc1nsnc(Nc2cccc(CS(C)(=O)=O)c2)c1=O class_name="1 (yes)"
compound_smiles=Cc1ccc(Nc2nsnc(Nc3ccc(C(N)=O)cc3)c2=O)cc1O class_name="0 (no)"
compound_smiles=CNC(=O)c1ccccc1Nc1nsnc(Nc2ccc(N3CCOCC3)cc2)c1=O class_name="1 (yes)"

* * *

Biological target: CAMKK2 kinase domain (132–470) (Homo sapiens, UniProt Q96RR4)
Construct: CAMKK2 kinase domain (132–470) was cloned in a pNIC-Bio2 vector; 10xHis tag followed by a TEV site (N, cleaved yes)
Assay: CaMKK2B TR-FRET tracer displacement assay
Conditions: CaMKK2, displacement of tracer 236, average of 2 experiments
Result type: IC50 (µM)

compound_smiles=Cc1ccc(Nc2nsnc(Nc3ccccc3C(N)=O)c2=O)cc1O result_type=IC50 measurement_unit=µM qualifier== reported=7.8
compound_smiles=Cc1ccc(Nc2nsnc(Nc3ccccc3C#N)c2=O)cc1O result_type=IC50 measurement_unit=µM qualifier== reported=43
compound_smiles=Cc1ccc(Nc2nsnc(Nc3cccc(C(F)(F)F)c3CO)c2=O)cc1O result_type=IC50 measurement_unit=µM qualifier=> reported=50
compound_smiles=Cc1ccc(Nc2nsnc(Nc3ccc4c(c3)CS(=O)(=O)C4)c2=O)cc1O result_type=IC50 measurement_unit=µM qualifier== reported=34
compound_smiles=Cc1ccc(Nc2nsnc(Nc3ccc(-c4ncc[nH]4)cc3)c2=O)cc1O result_type=IC50 measurement_unit=µM qualifier== reported=3.2
compound_smiles=Cc1ccc(Nc2nsnc(Nc3cccc(C#N)c3)c2=O)cc1O result_type=IC50 measurement_unit=µM qualifier=> reported=50
compound_smiles=Cc1ccc(Nc2nsnc(Nc3cccc(C(N)=O)c3)c2=O)cc1O result_type=IC50 measurement_unit=µM qualifier=> reported=50

* * *

Entries annotated with measured ΔTm at 10 µM
Target: CAMKK1 (Homo sapiens, UniProt Q8N5S9)
Construct: purchased in-house (home-made panel, SGC-style construct names)
Sequence (Q8N5S9 whole entry): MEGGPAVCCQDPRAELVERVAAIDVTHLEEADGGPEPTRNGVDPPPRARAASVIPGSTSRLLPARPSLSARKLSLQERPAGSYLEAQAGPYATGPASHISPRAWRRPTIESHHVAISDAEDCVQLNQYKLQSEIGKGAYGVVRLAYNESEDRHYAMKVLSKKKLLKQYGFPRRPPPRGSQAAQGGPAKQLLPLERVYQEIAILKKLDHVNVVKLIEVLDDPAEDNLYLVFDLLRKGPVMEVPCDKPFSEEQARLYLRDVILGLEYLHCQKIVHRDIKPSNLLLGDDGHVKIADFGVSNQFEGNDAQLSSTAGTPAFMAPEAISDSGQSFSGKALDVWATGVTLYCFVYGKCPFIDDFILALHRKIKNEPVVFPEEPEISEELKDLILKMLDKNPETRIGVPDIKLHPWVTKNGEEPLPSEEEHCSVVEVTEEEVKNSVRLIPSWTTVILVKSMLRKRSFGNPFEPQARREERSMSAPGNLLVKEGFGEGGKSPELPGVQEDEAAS
Experiment: DSF thermal shift, kinase panel
Type: binding
Conditions: 10 μM compound
Result type: ΔTm at 10 µM (°C)

compound="Cc1ccc(Nc2nsnc(Nc3ccc(C(N)=O)cc3)c2=O)cc1O [Compound 2]" tgt="CAMKK1 (Homo sapiens, UniProt Q8N5S9)" result_type="ΔTm at 10 µM" measurement_unit=°C reported=3.7
compound="Cc1ccc(Nc2nsnc(Nc3ccc4c(c3)CS(=O)(=O)C4)c2=O)cc1O [Compound 3]" tgt="CAMKK1 (Homo sapiens, UniProt Q8N5S9)" result_type="ΔTm at 10 µM" measurement_unit=°C reported=1.4
compound="Cc1ccc(Nc2nsnc(Nc3cccc(C(N)=O)c3)c2=O)cc1O [Compound 1]" tgt="CAMKK1 (Homo sapiens, UniProt Q8N5S9)" result_type="ΔTm at 10 µM" measurement_unit=°C reported=0
compound="CNC(=O)c1ccccc1Nc1nsnc(Nc2cccc(CS(C)(=O)=O)c2)c1=O [Compound 4]" tgt="CAMKK1 (Homo sapiens, UniProt Q8N5S9)" result_type="ΔTm at 10 µM" measurement_unit=°C reported=-0.4
compound="CNC(=O)c1ccccc1Nc1nsnc(Nc2ccc(N3CCOCC3)cc2)c1=O [Compound 5]" tgt="CAMKK1 (Homo sapiens, UniProt Q8N5S9)" result_type="ΔTm at 10 µM" measurement_unit=°C reported=-0.4

* * *

Entries annotated with measured ΔTm at 10 µM
Target: VRK2A (Homo sapiens)
Construct: TEV-cleavable (cleaved yes); made in house; host or cells: E. coli
Sequence (Q86Y07 whole entry): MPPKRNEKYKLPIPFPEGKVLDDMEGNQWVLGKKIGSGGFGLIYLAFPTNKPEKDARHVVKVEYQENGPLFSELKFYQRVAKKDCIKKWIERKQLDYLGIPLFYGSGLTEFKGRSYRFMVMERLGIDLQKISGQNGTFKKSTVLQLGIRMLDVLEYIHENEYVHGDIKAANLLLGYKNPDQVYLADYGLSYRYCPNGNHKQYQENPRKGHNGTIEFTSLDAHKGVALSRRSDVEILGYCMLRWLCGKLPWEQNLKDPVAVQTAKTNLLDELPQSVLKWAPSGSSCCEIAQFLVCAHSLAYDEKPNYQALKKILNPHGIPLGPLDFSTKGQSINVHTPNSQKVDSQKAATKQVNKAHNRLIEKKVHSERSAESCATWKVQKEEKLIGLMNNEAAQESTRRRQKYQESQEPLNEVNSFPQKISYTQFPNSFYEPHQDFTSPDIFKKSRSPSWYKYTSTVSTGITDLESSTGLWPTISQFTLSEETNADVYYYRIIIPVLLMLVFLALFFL
Experiment: DSF thermal shift, kinase panel
Format: binding
Settings: 10 μM compound
Result type: ΔTm at 10 µM (°C)

molecule="CNC(=O)c1ccccc1Nc1nsnc(Nc2cccc(CS(C)(=O)=O)c2)c1=O [Compound 4]" tgt="VRK2A (Homo sapiens)" reported=-0.3
molecule="Cc1ccc(Nc2nsnc(Nc3ccc4c(c3)CS(=O)(=O)C4)c2=O)cc1O [Compound 3]" tgt="VRK2A (Homo sapiens)" reported=0.1
molecule="Cc1ccc(Nc2nsnc(Nc3cccc(C(N)=O)c3)c2=O)cc1O [Compound 1]" tgt="VRK2A (Homo sapiens)" reported=-0.6
molecule="CNC(=O)c1ccccc1Nc1nsnc(Nc2ccc(N3CCOCC3)cc2)c1=O [Compound 5]" tgt="VRK2A (Homo sapiens)" reported=-0.3
molecule="Cc1ccc(Nc2nsnc(Nc3ccc(C(N)=O)cc3)c2=O)cc1O [Compound 2]" tgt="VRK2A (Homo sapiens)" reported=1.8

* * *

Entries annotated with measured ΔTm at 10 µM
Target: CAMKK2B (Homo sapiens, UniProt Q96RR4)
Construct: purchased in-house (home-made panel, SGC-style construct names)
Assay: DSF thermal shift, kinase panel
Format: binding
Conditions: 10 μM compound
Result type: ΔTm at 10 µM (°C)

molecule="CNC(=O)c1ccccc1Nc1nsnc(Nc2ccc(N3CCOCC3)cc2)c1=O [Compound 5]" reported=-0.5
molecule="Cc1ccc(Nc2nsnc(Nc3ccc4c(c3)CS(=O)(=O)C4)c2=O)cc1O [Compound 3]" reported=2.3
molecule="Cc1ccc(Nc2nsnc(Nc3ccc(C(N)=O)cc3)c2=O)cc1O [Compound 2]" reported=2.9
molecule="CNC(=O)c1ccccc1Nc1nsnc(Nc2cccc(CS(C)(=O)=O)c2)c1=O [Compound 4]" reported=-0.4
molecule="Cc1ccc(Nc2nsnc(Nc3cccc(C(N)=O)c3)c2=O)cc1O [Compound 1]" reported=0.5
